Would you mind telling me the reported hGLP-1R EC50 (pM) of each entry?
Biological target: human GLP-1 receptor (hGLP-1R) (human, UniProt P43220 24-463)
Assay: cell-based or functional assay
Starred links: 1 amine or outer side, 2 acyl side, 3 side chain; linkers in the order of their positions; H or OH if unused. Non-standard residues stand in square brackets, D forms with d. Groups on a side chain read outwards from the residue. Primed or numbered codes have the meaning given here. No end group written: not given here. *: point of attachment. Dip = N[C@H](C(=O)O)C(c1ccccc1)c1ccccc1; γGlu = O=C(O)[C@H](CCC(=O)[*:2])N[*:1]; Stearoyl = CCCCCCCCCCCCCCCCCC(=O)*; αMeF = C[C@](N)(Cc1ccccc1)C(=O)O; Myristoyl = CCCCCCCCCCCCCC(=O)*; PEG2′ = polyethylene glycol 2; Aib = CC(C)(N)C(=O)O
Number in pM, nothing else.

Given item HSQGS[αMeF]TSDVSK[αMeF]LDSKAAQD[αMeF]VQ[Aib]LEAGG-NH2 (not fully specified (residue 17)) [Peptide 80] , the value recorded as its hGLP-1R EC50 (pM) is 1.03

For this binder ( H[Aib]QGS[αMeF]TSDVSKILDSK([PEG2′-PEG2′-γGlu-Myristoyl])AAQD[αMeF]VQ[Aib]IINT-NH2 [Peptide 129] ), measured hGLP-1R EC50 (pM) is 0.462

Input HSQGS[αMeF]TSDVSK(Ac)[Aib]LDSK([PEG2′-PEG2′-γGlu-γGlu-Stearyl])AAQD[αMeF]VQ[Aib]IAN-NH2 [Peptide 110] . Output hGLP-1R EC50 (pM): 0.627

Item: H[Aib]QGS[αMeF]TSDVSKILDSK([PEG2′-PEG2′-γGlu-Stearoyl])AAQD[αMeF]VQ[Aib]IINT-NH2 [Peptide 127] | hGLP-1R EC50 (pM): 0.998

Data point: HSQGS[αMeF]TSDVSK[Dip]LDSKAAQD[αMeF]VE[Aib]IINT-NH2 (not fully specified (residue 17)) [Peptide 65] ; hGLP-1R EC50 (pM) = 1230
